Recorded IC50 by entry
target: Tyrosyl-DNA phosphodiesterase 1 (Homo sapiens, UniProt Q9NUW8); experiment: Inhibition of recombinant TDP1 (unknown origin) assessed as increase in fluorescence
Sequence (Q9NUW8 whole entry): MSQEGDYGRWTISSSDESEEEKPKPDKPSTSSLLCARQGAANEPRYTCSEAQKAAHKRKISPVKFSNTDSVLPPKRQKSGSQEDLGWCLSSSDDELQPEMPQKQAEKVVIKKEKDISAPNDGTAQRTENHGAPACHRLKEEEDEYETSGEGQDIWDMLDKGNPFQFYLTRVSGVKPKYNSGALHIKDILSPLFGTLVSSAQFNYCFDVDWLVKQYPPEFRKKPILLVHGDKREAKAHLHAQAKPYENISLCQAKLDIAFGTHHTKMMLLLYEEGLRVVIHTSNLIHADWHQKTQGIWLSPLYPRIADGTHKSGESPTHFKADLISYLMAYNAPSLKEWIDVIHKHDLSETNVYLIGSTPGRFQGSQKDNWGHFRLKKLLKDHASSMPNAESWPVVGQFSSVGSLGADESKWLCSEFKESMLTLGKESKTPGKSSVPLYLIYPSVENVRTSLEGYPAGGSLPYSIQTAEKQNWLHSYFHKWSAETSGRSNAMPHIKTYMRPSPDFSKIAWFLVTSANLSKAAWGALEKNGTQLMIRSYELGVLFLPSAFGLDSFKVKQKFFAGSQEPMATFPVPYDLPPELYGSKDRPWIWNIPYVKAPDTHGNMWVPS
Expressed in µM, but write only the number.

stdin: Sample O=C(CN1CCCC1)Nc1cc(C(F)(F)F)cc2c1SSSSS2 — what was its IC50?
stdout: 3.7

stdin: Sample O=C(CN1CCOCC1)Nc1cc(C(F)(F)F)cc2c1SSSSS2 — what was its IC50?
stdout: 1.62

stdin: Sample O=C(CN1CCCCC1)Nc1cc(C(F)(F)F)cc2c1SSSSS2 — what was its IC50?
stdout: 1.28

stdin: Sample O=C(CCN1CCCCC1)Nc1cc(C(F)(F)F)cc2c1SSSSS2 — what was its IC50?
stdout: 3.66

stdin: Sample O=C(CCN1CCOCC1)Nc1cc(C(F)(F)F)cc2c1SSSSS2 — what was its IC50?
stdout: 1.3

stdin: Sample CCCCN(CCCC)CC(=O)Nc1cc(C(F)(F)F)cc2c1SSSSS2 — what was its IC50?
stdout: 0.22

stdin: Sample O=C(CCN1CCCC1)Nc1cc(C(F)(F)F)cc2c1SSSSS2 — what was its IC50?
stdout: 6.03

* * *

test system: MCF7; assay: Induction of apoptosis in human MCF7 cells assessed as apoptotic DNA fragments at 100 uM after 72 hrs by DNA gel electrophoresis assay; format: functional, cell-based
Activity calls are given as the source filed them. The rule behind the calls is not given here.
property: Activity

stdin: Sample O=C(CN1CCCCC1)Nc1cc(C(F)(F)F)cc2c1SSSSS2 — what was its Activity?
stdout: Active

stdin: Sample CCCCN(CCCC)CC(=O)Nc1cc(C(F)(F)F)cc2c1SSSSS2 — what was its Activity?
stdout: Active

stdin: Sample Nc1cc(C(F)(F)F)cc2c1SSSSS2 — what was its Activity?
stdout: Active

stdin: Sample O=C(Nc1cc(C(F)(F)F)cc2c1SSSSS2)C(F)(F)F — what was its Activity?
stdout: Active

* * *

system: MCF7; experiment: Cytotoxicity against human MCF7 cells assessed as reduction In cell number after 72 hrs by MTT assay; type: functional; conditions: MCF7, 72 h
property: CC50 (µM)
Expressed in µM, but write only the number.

Here is how some compounds turned out for CC50.
stdin: Requested read-out CC50, target or system MCF7, entry O=C(CN1CCCCC1)Nc1cc(C(F)(F)F)cc2c1SSSSS2
stdout: 19.3

stdin: Requested read-out CC50, target or system MCF7, entry Nc1cc(C(F)(F)F)cc2c1SSSSS2
stdout: 14

stdin: Requested read-out CC50, target or system MCF7, entry O=C(Nc1cc(C(F)(F)F)cc2c1SSSSS2)C(F)(F)F
stdout: 21

Then there is this compound:
stdin: Requested read-out CC50, target or system MCF7, entry CCCCN(CCCC)CC(=O)Nc1cc(C(F)(F)F)cc2c1SSSSS2
stdout: 28.1
